Consider the following compounds and their measured AC50 readings.
Target: human PAH with the R408W mutation (A375 R408W cells) (Homo sapiens, UniProt P00439, R408W)
Construct: expressed in transfected cells
Sequence (P00439 1-452 R408W): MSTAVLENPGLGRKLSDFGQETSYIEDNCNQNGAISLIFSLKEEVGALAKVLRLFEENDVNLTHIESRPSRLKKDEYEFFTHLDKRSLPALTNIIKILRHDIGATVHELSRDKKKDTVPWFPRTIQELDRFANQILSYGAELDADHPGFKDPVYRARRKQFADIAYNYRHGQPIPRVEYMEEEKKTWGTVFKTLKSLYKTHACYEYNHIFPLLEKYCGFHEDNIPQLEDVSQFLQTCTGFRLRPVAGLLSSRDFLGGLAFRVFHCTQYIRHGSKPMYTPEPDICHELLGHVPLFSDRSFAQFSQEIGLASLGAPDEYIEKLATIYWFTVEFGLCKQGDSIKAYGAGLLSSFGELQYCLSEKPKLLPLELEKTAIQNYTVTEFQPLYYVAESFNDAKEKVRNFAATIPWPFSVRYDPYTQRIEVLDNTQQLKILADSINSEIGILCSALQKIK
Assay: Cell Based Phenylalanine Flux Assay
Details: A375 R408W cells; 24 hrs with compound, then 20 μM sepiapterin and 800 μM 13C9,15N-Phenylalanine for 4 hours; 13C-Tyrosine by LC-MS; average where tested multiple times
parameter: AC50

chemical-string	parameter	endpoint-result
Cn1cc(-c2nnc(C(=O)N3CCc4[nH]cnc4[C@@H]3c3nc4c(F)ccc(F)c4o3)o2)cn1	AC50	1000 to 5000 nM
O=C(c1cnn2cc(-c3ccccn3)ccc12)N1CCc2[nH]cnc2[C@H]1c1nc2cccc(F)c2o1	AC50	≤ 500 nM
Cc1ccc2oc([C@H]3c4nc[nH]c4CCN3C(=O)c3ncnn3C)nc2c1	AC50	1000 to 5000 nM
Cc1c(F)ccc2oc([C@@H]3c4nc[nH]c4CCN3C(=O)c3ocnc3C(F)F)nc12	AC50	≤ 500 nM
C[C@@H](O)c1nc(C(F)F)c(C(=O)N2CCc3[nH]cnc3[C@H]2c2nc3ccc(F)cc3o2)o1	AC50	500 to 1000 nM
O=C(c1nnc(-c2ccn(C(F)F)n2)o1)N1CCc2[nH]cnc2[C@@H]1c1nc2cccc(C(F)(F)F)c2o1	AC50	500 to 1000 nM
CN1CCN(c2nc(C(F)F)c(C(=O)N3CCc4[nH]cnc4[C@H]3c3nc4cccc(F)c4o3)o2)CC1	AC50	≤ 500 nM
Cc1cccc2nc([C@@H]3c4nc[nH]c4CCN3C(=O)c3nc(C(F)(F)F)nn3C)oc12	AC50	500 to 1000 nM
Cn1nc(Br)nc1C(=O)N1CCc2[nH]cnc2[C@H]1c1nc2c(F)cccc2o1	AC50	500 to 1000 nM
Cc1cccc2oc([C@@H]3c4nc[nH]c4CCN3C(=O)c3ocnc3C(F)F)nc12	AC50	≤ 500 nM
Cc1nc([C@@H](C)O)oc1C(=O)N1CCc2[nH]cnc2[C@H]1c1nc2c(F)cccc2o1	AC50	500 to 1000 nM
O=C(CC1CC1)N1CCc2[nH]cnc2[C@H]1c1nc2cc(F)ccc2o1	AC50	1000 to 5000 nM
COc1ccc2c(C(=O)N3CCc4[nH]cnc4[C@H]3c3nc4cc(F)ccc4o3)cnn2c1	AC50	500 to 1000 nM
Cc1ccc2oc([C@H]3c4nc[nH]c4CCN3C(=O)c3oc(-c4ccccn4)nc3C(F)F)nc2c1	AC50	1000 to 5000 nM
O=C(c1nnc(-c2ccccn2)o1)N1CCc2[nH]cnc2[C@@H]1c1nc2cc(F)ccc2o1	AC50	1000 to 5000 nM
Cn1nc(Cl)nc1C(=O)N1CCc2[nH]cnc2[C@H]1c1nc2cccc(F)c2o1	AC50	≤ 500 nM
Cn1cc(-c2nnc(C(=O)N3CCc4[nH]cnc4[C@H]3c3nc4ccccc4o3)o2)cn1	AC50	≤ 500 nM
O=C(c1oc(N2CCC(F)CC2)nc1C(F)F)N1CCc2[nH]cnc2[C@@H]1c1nc2cccc(F)c2o1	AC50	≤ 500 nM
O=C(c1cnco1)N1CCc2[nH]cnc2[C@H]1c1nc2c(F)ccc(F)c2o1	AC50	500 to 1000 nM
O=C(c1ocnc1CC(F)F)N1CCc2[nH]cnc2[C@@H]1c1nc2cc(F)ccc2o1	AC50	500 to 1000 nM
O=C(c1ocnc1C(F)(F)F)N1CCc2[nH]cnc2[C@H]1c1nc2cc(Br)ccc2o1	AC50	≤ 500 nM
CC(C)(O)c1nc(C(F)F)c(C(=O)N2CCc3[nH]cnc3[C@H]2c2nc3c(F)cc(F)cc3o2)o1	AC50	≤ 500 nM
CC(C)n1ncnc1C(=O)N1CCc2[nH]cnc2[C@H]1c1nc2ccccc2o1	AC50	≤ 500 nM
O=C(c1ccnn1C(F)(F)F)N1CCc2[nH]cnc2[C@@H]1c1nc2cc(F)ccc2o1	AC50	500 to 1000 nM
O=C(c1ocnc1C(F)F)N1CCc2[nH]cnc2[C@@H]1c1nc2cc(Cl)ccc2o1	AC50	500 to 1000 nM
COc1cccc2oc([C@@H]3c4nc[nH]c4CCN3C(=O)c3ncnn3C)nc12	AC50	1000 to 5000 nM
Cc1ccc(C)c2oc([C@@H]3c4nc[nH]c4CCN3C(=O)c3ocnc3C(F)F)nc12	AC50	≤ 500 nM
Cn1cc(-c2nnc(C(=O)N3CCc4[nH]cnc4[C@@H]3c3nc4c(F)c(F)ccc4o3)o2)cn1	AC50	1000 to 5000 nM
Cn1cnc(-c2nc(C(F)F)c(C(=O)N3CCc4[nH]cnc4[C@H]3c3nc4cc(F)ccc4o3)o2)c1	AC50	≤ 500 nM
Cn1cc(-c2nc(C(F)F)c(C(=O)N3CCc4[nH]cnc4[C@@H]3c3nc4cc(F)ccc4o3)o2)cn1	AC50	1000 to 5000 nM
O=C(c1oc(-c2ccccn2)nc1C1CC1)N1CCc2[nH]cnc2[C@@H]1c1nc2cc(F)ccc2o1	AC50	1000 to 5000 nM
